Record form. Attribute: Decomposition efficiency of genistin family in defatted soybean. Fill in for each entry.
tested on: Crude diglycosidase; assay: Examination of temperature in the conversion into isoflavone aglycons by diglycosidase using soybean materials; type: biochemical, Penicillium multicolor IAM7153; conditions: 45° C., heat treatment of enzyme yes, reaction time 6 h
One number for each entry, in %.

Answered examples (3):
{"CHEMICAL STRING": "O=c1c(-c2ccc(O)cc2)coc2cc(O)cc(O)c12", "SYSTEM TESTED": "Crude diglycosidase", "ASSAY VALUE": 50.4}
{"CHEMICAL STRING": "CC(=O)OC[C@H]1O[C@@H](Oc2cc(O)c3c(=O)c(-c4ccc(O)cc4)coc3c2)[C@H](O)[C@@H](O)[C@@H]1O", "SYSTEM TESTED": "Crude diglycosidase", "ASSAY VALUE": 0.2}
{"CHEMICAL STRING": "O=c1c(-c2ccc(O)cc2)coc2cc(O[C@@H]3O[C@H](CO)[C@@H](O)[C@H](O)[C@H]3O)cc(O)c12", "SYSTEM TESTED": "Crude diglycosidase", "ASSAY VALUE": 1.3}

Ask: Input O=C(O)CC(=O)OC[C@H]1O[C@@H](Oc2cc(O)c3c(=O)c(-c4ccc(O)cc4)coc3c2)[C@H](O)[C@@H](O)[C@@H]1O , output reported Decomposition efficiency of genistin family in defatted soybean.
Result: 48.1

----------
Please go through the items and note down their Decomposition efficiency of glycitin family in soymilk.
system: Crude diglycosidase; assay: Examination of pH in the conversion into isoflavone aglycons by diglycosidase using soybean materials; assay type: biochemical, Penicillium multicolor IAM7153; conditions: pH2.3, heat treatment of enzyme no, reaction time 1 h, 55° C.
Numbers only.

{"MOLECULE": "COc1cc2c(=O)c(-c3ccc(O)cc3)coc2cc1O[C@@H]1O[C@H](COC(=O)CC(=O)O)[C@@H](O)[C@H](O)[C@H]1O [malonylglycitin, 6″-O-malonylglycitin]", "ASSAY VALUE": 51.3}

Now consider the entry below.
Ask: Find the measured Decomposition efficiency of glycitin family in soymilk of COc1cc2c(=O)c(-c3ccc(O)cc3)coc2cc1O [glycitein] and report it.
Result: 48.7

----------
system: Crude diglycosidase; assay: Examination of pH in the conversion into isoflavone aglycons by diglycosidase using soybean materials; format: biochemical, Penicillium multicolor IAM7153; settings: pH2, heat treatment of enzyme no, reaction time 6 h, 55° C.
Assign Decomposition efficiency of glycitin family in roasted soy flour to each entry below.

Answered examples (2):
{"CHEMICAL STRING": "COc1cc2c(=O)c(-c3ccc(O)cc3)coc2cc1O[C@@H]1O[C@H](COC(C)=O)[C@@H](O)[C@H](O)[C@H]1O", "ASSAY VALUE": 35.5}
{"CHEMICAL STRING": "COc1cc2c(=O)c(-c3ccc(O)cc3)coc2cc1O", "ASSAY VALUE": 10.1}

Now look at this one.
Ask: Look up Decomposition efficiency of glycitin family in roasted soy flour of COc1cc2c(=O)c(-c3ccc(O)cc3)coc2cc1O[C@@H]1O[C@H](CO)[C@@H](O)[C@H](O)[C@H]1O and report it.
Result: 54.4

----------
test system: Crude diglycosidase; experiment: Examination of substrate concentration in the conversion into isoflavone aglycons by diglycosidase using soybean materials; assay type: biochemical, Penicillium multicolor IAM7153; conditions: roasted soy flour, substrate concentration 20%, heat treatment of enzyme no, reaction time 1 h;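 note: percent of the isoflavone family total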
Could you please report measured Decomposition efficiency: ratio of each glycoside/aglycon within its isoflavone family for the items listed next?
Give bare numbers, in %.

{"CHEMICAL STRING": "COc1cc2c(=O)c(-c3ccc(O)cc3)coc2cc1O[C@@H]1O[C@H](COC(C)=O)[C@@H](O)[C@H](O)[C@H]1O", "ASSAY VALUE": 22.9}

I need Decomposition efficiency: ratio of each glycoside/aglycon within its isoflavone family for every entry listed below, if you could help.
1. CC(=O)OC[C@H]1O[C@@H](Oc2ccc3c(=O)c(-c4ccc(O)cc4)coc3c2)[C@H](O)[C@@H](O)[C@@H]1O
2. CC(=O)OC[C@H]1O[C@@H](Oc2cc(O)c3c(=O)c(-c4ccc(O)cc4)coc3c2)[C@H](O)[C@@H](O)[C@@H]1O
3. COc1cc2c(=O)c(-c3ccc(O)cc3)coc2cc1O

Result:
40.7
44.1
77.1
